Target: AgHof1
Assay: SPOT peptide array binding signal intensity (averaged, normalized) (arbitrary units (background-subtracted, floor 0; scale differs between SH3 domains)); higher = stronger binding of the SH3 domain to the peptide
experimental.endpoint: SPOT peptide array binding signal intensity

SPOT peptide array binding signal intensity lookup needed for NNFYRPLLRSVLVLL , thanks.
≤ 0

So what's the measured SPOT peptide array binding signal intensity for this one? GPPPPLPPPLFPSSS
1830

I am curious: what SPOT peptide array binding signal intensity value has been reported for YHSRRHPLALGFKYV ?
19

// returns reported SPOT peptide array binding signal intensity for input NMLSRPRLAKLPSIR
331

Param item = ISNFVPPNLPMRRFK ; retrieve measured SPOT peptide array binding signal intensity.
186

Can you look up the measured SPOT peptide array binding signal intensity of TKIRRRPQQPLTDFT for me?
39.8

// query SPOT peptide array binding signal intensity value for entry RMVRRRPLRVQFSAR
44.8

Provenance of the data: the supplement of paper PMC4466140
